Values compiled from ChEMBL document CHEMBL4382195.

experimentalSystem: DNA topoisomerase 2-alpha (Homo sapiens)
Sequence (P11388 whole entry): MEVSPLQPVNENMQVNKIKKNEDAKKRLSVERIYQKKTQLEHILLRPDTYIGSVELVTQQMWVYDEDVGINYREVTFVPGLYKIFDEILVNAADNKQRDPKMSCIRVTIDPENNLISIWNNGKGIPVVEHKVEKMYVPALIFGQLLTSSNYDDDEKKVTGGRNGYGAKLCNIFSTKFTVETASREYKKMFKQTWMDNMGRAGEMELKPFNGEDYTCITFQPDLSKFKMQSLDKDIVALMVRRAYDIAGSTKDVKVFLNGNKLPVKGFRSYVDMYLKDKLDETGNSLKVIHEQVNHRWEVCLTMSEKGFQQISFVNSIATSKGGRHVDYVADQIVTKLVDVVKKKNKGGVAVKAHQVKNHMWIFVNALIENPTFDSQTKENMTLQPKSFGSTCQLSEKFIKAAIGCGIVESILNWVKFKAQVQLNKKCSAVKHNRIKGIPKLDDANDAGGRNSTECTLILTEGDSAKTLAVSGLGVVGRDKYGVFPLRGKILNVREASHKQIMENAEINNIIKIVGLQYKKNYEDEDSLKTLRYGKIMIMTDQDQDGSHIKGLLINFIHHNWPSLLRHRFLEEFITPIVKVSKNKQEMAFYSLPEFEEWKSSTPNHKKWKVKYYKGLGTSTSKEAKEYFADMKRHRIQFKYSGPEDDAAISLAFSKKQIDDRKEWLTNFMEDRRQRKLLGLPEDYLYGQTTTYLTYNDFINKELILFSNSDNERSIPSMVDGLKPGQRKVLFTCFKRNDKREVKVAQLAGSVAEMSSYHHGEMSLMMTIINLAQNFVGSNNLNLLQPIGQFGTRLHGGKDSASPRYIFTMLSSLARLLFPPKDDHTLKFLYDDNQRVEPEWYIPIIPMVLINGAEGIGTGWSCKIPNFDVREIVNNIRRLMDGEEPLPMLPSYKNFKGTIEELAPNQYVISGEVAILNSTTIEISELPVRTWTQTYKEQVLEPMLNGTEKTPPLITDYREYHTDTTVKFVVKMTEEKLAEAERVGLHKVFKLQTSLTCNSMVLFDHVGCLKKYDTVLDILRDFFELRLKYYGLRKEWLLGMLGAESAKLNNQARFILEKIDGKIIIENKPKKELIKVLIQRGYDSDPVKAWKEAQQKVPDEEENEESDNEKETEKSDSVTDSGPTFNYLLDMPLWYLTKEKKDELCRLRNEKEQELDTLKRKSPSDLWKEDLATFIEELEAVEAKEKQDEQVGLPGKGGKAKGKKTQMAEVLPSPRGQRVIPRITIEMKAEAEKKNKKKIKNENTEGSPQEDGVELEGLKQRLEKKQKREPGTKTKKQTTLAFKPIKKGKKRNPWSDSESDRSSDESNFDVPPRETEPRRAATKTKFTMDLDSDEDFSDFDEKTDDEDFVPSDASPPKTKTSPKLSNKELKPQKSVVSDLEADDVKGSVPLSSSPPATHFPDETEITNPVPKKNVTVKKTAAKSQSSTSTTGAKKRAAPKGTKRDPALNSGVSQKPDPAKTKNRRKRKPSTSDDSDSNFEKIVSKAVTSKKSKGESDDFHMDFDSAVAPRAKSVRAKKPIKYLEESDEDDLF
protocolDescription: Inhibition of recombinant human topoisomerase 2alpha using supercoiled pNO1 plasmid as substrate after 30 mins by SYBR-GOLD staining based fluorimetric analysis
propertyName: IC50 (µM)
The figure you give is taken to be in µM; do not add the unit.

> print(dat)
                          smilescode  numericreadout
1  O=C(O)c1ccc(Nc2ncnc3nc[nH]c23)cc1              44

Could you now look at the following compound, please?
Would you mind telling me what IC50 value was observed for `O=C(O)c1cccc(Nc2ncnc3[nH]cnc23)c1` ? 65

* * *

experimentalSystem: DNA topoisomerase 2-beta (Homo sapiens)
Sequence (Q02880 whole entry): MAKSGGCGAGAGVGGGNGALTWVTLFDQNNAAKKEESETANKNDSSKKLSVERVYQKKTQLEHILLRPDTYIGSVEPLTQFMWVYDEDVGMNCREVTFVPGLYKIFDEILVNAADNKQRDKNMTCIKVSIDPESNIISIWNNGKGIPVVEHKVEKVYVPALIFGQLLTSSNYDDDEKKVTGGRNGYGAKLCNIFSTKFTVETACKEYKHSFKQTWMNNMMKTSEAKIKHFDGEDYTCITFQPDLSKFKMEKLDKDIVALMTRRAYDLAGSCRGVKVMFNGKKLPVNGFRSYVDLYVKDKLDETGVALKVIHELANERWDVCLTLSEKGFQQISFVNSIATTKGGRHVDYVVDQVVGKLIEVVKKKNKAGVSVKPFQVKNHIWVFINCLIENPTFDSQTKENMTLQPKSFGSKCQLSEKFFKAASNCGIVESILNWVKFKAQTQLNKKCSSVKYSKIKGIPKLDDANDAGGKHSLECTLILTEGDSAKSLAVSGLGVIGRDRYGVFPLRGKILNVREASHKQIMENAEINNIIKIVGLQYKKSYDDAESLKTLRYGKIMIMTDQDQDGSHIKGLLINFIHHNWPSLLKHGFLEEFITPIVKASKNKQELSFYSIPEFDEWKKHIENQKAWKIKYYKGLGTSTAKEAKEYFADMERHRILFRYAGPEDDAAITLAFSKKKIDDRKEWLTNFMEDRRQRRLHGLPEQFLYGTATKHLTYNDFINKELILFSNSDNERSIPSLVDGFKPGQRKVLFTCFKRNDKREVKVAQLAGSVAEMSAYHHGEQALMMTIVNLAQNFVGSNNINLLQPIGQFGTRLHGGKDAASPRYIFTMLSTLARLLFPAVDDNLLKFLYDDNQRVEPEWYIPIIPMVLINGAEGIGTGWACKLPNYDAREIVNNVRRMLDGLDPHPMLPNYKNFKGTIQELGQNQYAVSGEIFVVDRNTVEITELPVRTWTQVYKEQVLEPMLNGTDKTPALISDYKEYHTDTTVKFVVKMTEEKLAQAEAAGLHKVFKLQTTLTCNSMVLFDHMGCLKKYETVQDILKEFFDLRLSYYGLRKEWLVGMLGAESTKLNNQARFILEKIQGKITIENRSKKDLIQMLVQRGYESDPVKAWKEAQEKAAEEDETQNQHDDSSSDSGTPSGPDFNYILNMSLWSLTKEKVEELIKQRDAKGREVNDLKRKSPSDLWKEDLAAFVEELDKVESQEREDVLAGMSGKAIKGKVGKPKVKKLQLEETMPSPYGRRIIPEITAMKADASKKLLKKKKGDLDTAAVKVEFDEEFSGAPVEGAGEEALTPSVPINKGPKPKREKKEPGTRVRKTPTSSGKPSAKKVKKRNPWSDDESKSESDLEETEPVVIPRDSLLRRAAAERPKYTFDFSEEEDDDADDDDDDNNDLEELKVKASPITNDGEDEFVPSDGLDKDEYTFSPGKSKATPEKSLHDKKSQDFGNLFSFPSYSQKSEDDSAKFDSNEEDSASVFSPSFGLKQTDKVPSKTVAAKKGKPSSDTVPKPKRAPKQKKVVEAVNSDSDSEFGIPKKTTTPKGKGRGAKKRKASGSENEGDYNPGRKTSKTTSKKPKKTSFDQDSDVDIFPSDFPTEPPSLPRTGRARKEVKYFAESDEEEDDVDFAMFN
protocolDescription: Poison activity at recombinant human topoisomerase 2beta using pBR322 plasmid as substrate after 30 mins by ethidium bromide staining based agarose gel electrophoresis
pIC50: −log10 of the molar value.
propertyName: pIC50

For the record `CN(C)CCCNc1ccc(NCCCN(C)C)c2c1C(=O)c1ccc(C(=O)Nc3ccc(S(C)(=O)=O)cc3)cc1C2=O` , what value of pIC50 is listed for DNA topoisomerase 2-beta (Homo sapiens)? 5.17 to 5.36

pIC50 of `COc1cc(S(C)(=O)=O)ccc1NC(=O)c1ccc2c(c1)C(=O)c1c(NCCCN(C)C)ccc(NCCCN(C)C)c1C2=O` on DNA topoisomerase 2-beta (Homo sapiens)? 5.48 to 5.97

What reported pIC50 corresponds to `CN(C)CCNc1ccc(NCCN(C)C)c2c1C(=O)c1ccc(C(=O)Nc3ccc(S(C)(=O)=O)cc3)cc1C2=O` on DNA topoisomerase 2-beta (Homo sapiens)? 5.03 to 5.28

Value wanted: pIC50 (DNA topoisomerase 2-beta (Homo sapiens)) of entry O=C1c2ccccc2C(=O)c2c(NCCNCCO)ccc(NCCNCCO)c21 [AMETANTRONE] 6.00 to 7.52
